# System: primary rat microglia
# protocolNotes: Cell toxicity (dead cells, size <150 μm2) in coated fibrin (cFib) assay;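 note: share of dead cells sized under 150 µm2 at 10 µM in fibrin-stimulated microglia HTS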
# recordedConditions: primary microglia HTS, fibrin assay, dead cells (size <150 μm2), compounds at 10 μM
propertyMeasured: Fibrin % cell toxicity (%)

1) COc1cc2nc(N3CCN(C(=O)C4COc5ccccc5O4)CC3)nc(N)c2cc1OC (stereo not drawn) | 0
2) Cc1cc(N)c2ccccc2[n+]1CCCCCCCCCC[n+]1c(C)cc(N)c2ccccc21 | 0
3) COc1ccc(-c2cc(C(F)F)nn2-c2ccc(S(N)(=O)=O)cc2)cc1F | 0
4) CC(=O)N(O)CCCCCNC(=O)CCC(=O)N(O)CCCCCNC(=O)CCC(=O)N(O)CCCCCN | 1
5) CC(=O)Nc1ccc(OC(C)=O)cc1 [Diacetamate] | 1
6) CC/C=C\C/C=C\C/C=C\C/C=C\C/C=C\C/C=C\CCC(=O)O | 1
7) CC(C)(CO)[C@@H](O)C(=O)NCCCO | 0
8) OCC(O)CN1CCN(c2ccccc2)CC1 (stereo not drawn) | 1
9) CCC1(C)CC(=O)NC1=O (stereo not drawn) [Ethosuximide] | 0

====

# System: LPS-induced microglia activation
# protocolNotes: Image-based assay of LPS-induced microglia activation (HTS and dose response)
# Assay type: cell-based, rat
# recordedConditions: primary microglia HTS, LPS stimulation, compounds at 10 μM
The entries below come with measured LPS % inhibition values attached.
propertyMeasured: LPS % inhibition (%)

1) C[C@H]1C[C@H]2[C@@H]3CCC4=CC(=O)C=C[C@]4(C)[C@@]3(Cl)[C@@H](O)C[C@]2(C)[C@@]1(O)C(=O)CO | −3
2) CCCCCCCCCC(=O)N[C@@H](Cc1c[nH]c2ccccc12)C(=O)N[C@@H](CC(N)=O)C(=O)N[C@@H](CC(=O)O)C(=O)N[C@@H]1C(=O)NCC(=O)N[C@@H](CCCN)C(=O)N[C@@H](CC(=O)O)C(=O)N[C@H](C)C(=O)N[C@@H](CC(=O)O)C(=O)NCC(=O)N[C@H](CO)C(=O)N[C@@H]([C@H](C)CC(=O)O)C(=O)N[C@@H](CC(=O)c2ccccc2N)C(=O)O[C@@H]1C | 17

====

# Test system: primary rat microglia
# recordedConditions: rat
Structures can show the parent of a compound that is named as a salt.
The entries below come with measured LPS % cell toxicity values attached.
propertyMeasured: LPS % cell toxicity (%)

1. Nc1nc(NC2CC2)c2ncn([C@H]3C=C[C@@H](CO)C3)c2n1 [Abacavir Sulfate] | 0
2. CC(C(=O)O)c1ccc2c(c1)Cc1cccnc1O2 (centres unmarked) | 0
3. CCOC(=O)C1=C[C@]2(CC)CCCN3CCc4c(n1c1ccccc41)[C@@H]32 | 0
4. COc1cc(N)c(Cl)cc1C(=O)NC1CCN(CCCOc2ccc(F)cc2)CC1OC (centres unmarked) [Cisapride] | 0
5. CCOC(=O)c1cncn1[C@H](C)c1ccccc1 [Etomidate] | 0
6. CCCC(C)C1(CC)C(=O)NC(=S)NC1=O (centres unmarked) | 0
7. C=C1CC[C@H](O)C/C1=C/C=C1\CCC[C@]2(C)[C@@H]([C@H](C)/C=C/[C@H](C)C(C)C)CC[C@@H]12 | 0
8. C[C@@H]1C[C@H]2[C@@H]3CCC4=CC(=O)C=C[C@]4(C)[C@@]3(Cl)[C@@H](O)C[C@]2(C)[C@@]1(OC(=O)c1ccco1)C(=O)CCl [Mometasone Furoate] | 4
